- assay summary: Food effect on administration of sepiapterin: plasma sepiapterin and BH4 concentrations, fasted vs fed
- Type: in vivo, human
- conditions: human, plasma, oral, 10 mg/kg, fed (high-fat meal); sepiapterin 10 mg/kg oral; 12 h; read-out: Concentration in Plasma, Mean
Quick reference for concentration at 12 h among some compounds

Task: Reported concentration at 12 h for C[C@H](O)C(=O)C1=Nc2c(nc(N)[nH]c2=O)NC1 [sepiapterin, Sepiapterin] : what is it?
Result: 0 nM

Task: Reported concentration at 12 h for C[C@H](O)[C@H](O)[C@H]1CNc2nc(N)[nH]c(=O)c2N1 [BH4, Tetrahydrobiopterin] : what is it?
Result: 161 nM

====

- assay summary: Food effect on administration of sepiapterin: plasma sepiapterin and BH4 concentrations, fasted vs fed
- Assay type: in vivo, human
- conditions: human, plasma, oral, 10 mg/kg, fed (high-fat meal); sepiapterin 10 mg/kg oral; 0.5 h; read-out: Concentration in Plasma, Mean
Quick reference for concentration at 0.5 h among some compounds
The reply should contain only the number, in nM.

• C[C@H](O)[C@H](O)[C@H]1CNc2nc(N)[nH]c(=O)c2N1 [BH4, Tetrahydrobiopterin] = 33.3

Please find the next compound below.
Task: Reported concentration at 0.5 h for C[C@H](O)C(=O)C1=Nc2c(nc(N)[nH]c2=O)NC1 [sepiapterin, Sepiapterin] : what is it?
Result: 0.63

====

- assay summary: Food effect on administration of sepiapterin: plasma sepiapterin and BH4 concentrations, fasted vs fed
- Format: in vivo, human
- conditions: human, plasma, oral, 10 mg/kg, fasted; sepiapterin 10 mg/kg oral; 0.5 h; read-out: Concentration in Plasma, Minimum
Quick reference for concentration at 0.5 h among some compounds
The reply should contain only the number, in nM.

* C[C@H](O)C(=O)C1=Nc2c(nc(N)[nH]c2=O)NC1 [sepiapterin, Sepiapterin] | 0

Please find the next compound below.
Task: Reported concentration at 0.5 h for C[C@H](O)[C@H](O)[C@H]1CNc2nc(N)[nH]c(=O)c2N1 [BH4, Tetrahydrobiopterin] : what is it?
Result: 13.8

====

- assay summary: Food effect on administration of sepiapterin: plasma sepiapterin and BH4 concentrations, fasted vs fed
- Type: in vivo, human
- conditions: human, plasma, oral, 10 mg/kg, fasted; sepiapterin 10 mg/kg oral; 1 h; read-out: Concentration in Plasma, Minimum
- Description: Method: Subjects received 2 oral doses of sepiapterin (10 mg/kg) separated by 1 week in a fasted and fed state. […] Sampling for PK analysis occurred predose on Days 1 and 8 (within 30 minutes before dosing) and 0.5 hr, 1 hr, 2 hr, 4 hr, 8 hr, 12 hr, and 24 hr after the doses on Days 1 and 8. The blood concentrations of sepiapterin and BH4 were analyzed by MNG Labs.
test readout: concentration at 1 h (nM)
The reply should contain only the number, in nM.

Task: Reported concentration at 1 h for C[C@H](O)C(=O)C1=Nc2c(nc(N)[nH]c2=O)NC1 [sepiapterin, Sepiapterin] : what is it?
Result: 3.15

Task: Reported concentration at 1 h for C[C@H](O)[C@H](O)[C@H]1CNc2nc(N)[nH]c(=O)c2N1 [BH4, Tetrahydrobiopterin] : what is it?
Result: 98.5

====

- assay summary: Food effect on administration of sepiapterin: plasma sepiapterin and BH4 concentrations, fasted vs fed
- Type: in vivo, human
- conditions: human, plasma, oral, 10 mg/kg, fasted; sepiapterin 10 mg/kg oral; 2 h; read-out: Concentration in Plasma, Median
Quick reference for concentration at 2 h among some compounds
The reply should contain only the number, in nM.

• C[C@H](O)C(=O)C1=Nc2c(nc(N)[nH]c2=O)NC1 [sepiapterin, Sepiapterin] = 4.71

Task: Reported concentration at 2 h for C[C@H](O)[C@H](O)[C@H]1CNc2nc(N)[nH]c(=O)c2N1 [BH4, Tetrahydrobiopterin] : what is it?
Result: 370
